Assay: activity coefficient (dimensionless); of the first substance listed, at infinite dilution; xn = mol fraction of the nth substance listed
Conditions: 323.1 K; 101 kPa; Liquid; Chromatography; x1 = 0
Decide by activity coefficient: equal to or exceeding 1 means yes, less means no.

Solved entries:
[[record]]
molecule = "CC(C)CO [2-methyl-1-propanol] + CCCCCCCCCCn1cc[n+](CCCCCCCCCC)c1C.O=S(=O)([N-]S(=O)(=O)C(F)(F)F)C(F)(F)F"
assigned_category = "yes"

[[record]]
molecule = "C#CCCCC [1-hexyne] + CCCCCCCCCCn1cc[n+](CCCCCCCCCC)c1C.O=S(=O)([N-]S(=O)(=O)C(F)(F)F)C(F)(F)F"
assigned_category = "no"

[[record]]
molecule = "CC1CCCC1 [methylcyclopentane] + CCCCCCCCCCn1cc[n+](CCCCCCCCCC)c1C.O=S(=O)([N-]S(=O)(=O)C(F)(F)F)C(F)(F)F"
assigned_category = "yes"

[[record]]
molecule = "CCCC(C)=O [pentan-2-one] + CCCCCCCCCCn1cc[n+](CCCCCCCCCC)c1C.O=S(=O)([N-]S(=O)(=O)C(F)(F)F)C(F)(F)F"
assigned_category = "no"


Query string: // inclusive: activity coefficient at least 1? input: CC#N [acetonitrile] + CCCCCCCCCCn1cc[n+](CCCCCCCCCC)c1C.O=S(=O)([N-]S(=O)(=O)C(F)(F)F)C(F)(F)F
Result string: no

Query string: Same question, CCCCCC [hexane] + CCCCCCCCCCn1cc[n+](CCCCCCCCCC)c1C.O=S(=O)([N-]S(=O)(=O)C(F)(F)F)C(F)(F)F this time
Result string: yes

###

// activity coefficient lookup, one value per entry
Assay: activity coefficient (dimensionless); of the first substance listed, at infinite dilution; xn = mol fraction of the nth substance listed
Conditions: 332.85 K; 101 kPa; Liquid; Chromatography; x1 = 0
Number, no unit, nothing else.

These solved cases illustrate the format of a correct answer.
[[record]]
compound = "CCCCO [butan-1-ol] + CCCCCC[n+]1ccn(C)c1.FC(F)(F)C(F)(F)[P-](F)(F)(F)(C(F)(F)C(F)(F)F)C(F)(F)C(F)(F)F"
measured_number = 2.32

[[record]]
compound = "CCC=O [propanal] + CCCCCC[n+]1ccn(C)c1.FC(F)(F)C(F)(F)[P-](F)(F)(F)(C(F)(F)C(F)(F)F)C(F)(F)C(F)(F)F"
measured_number = 0.283


Query string: Please give the measured activity coefficient for this compound: ClC(Cl)Cl [trichloromethane] + CCCCCC[n+]1ccn(C)c1.FC(F)(F)C(F)(F)[P-](F)(F)(F)(C(F)(F)C(F)(F)F)C(F)(F)C(F)(F)F
Result string: 1.09

Query string: Same question, c1ccncc1 [pyridine] + CCCCCC[n+]1ccn(C)c1.FC(F)(F)C(F)(F)[P-](F)(F)(F)(C(F)(F)C(F)(F)F)C(F)(F)C(F)(F)F this time
Result string: 0.326

Query string: Same question, CCC(C)CC [3-methylpentane] + CCCCCC[n+]1ccn(C)c1.FC(F)(F)C(F)(F)[P-](F)(F)(F)(C(F)(F)C(F)(F)F)C(F)(F)C(F)(F)F this time
Result string: 5.05

Query string: Same question, CCO [ethanol] + CCCCCC[n+]1ccn(C)c1.FC(F)(F)C(F)(F)[P-](F)(F)(F)(C(F)(F)C(F)(F)F)C(F)(F)C(F)(F)F this time
Result string: 1.69

Origin of values: the NIST ThermoML archive (doi:10.1021/je200195q)
